Values were extracted from PubChem BioAssay.

MEASURED_TARGET: Voltage-gated potassium channel subunit beta-2 (Rattus norvegicus) (UniProt P62483)
Sequence (P62483 whole entry, looked up): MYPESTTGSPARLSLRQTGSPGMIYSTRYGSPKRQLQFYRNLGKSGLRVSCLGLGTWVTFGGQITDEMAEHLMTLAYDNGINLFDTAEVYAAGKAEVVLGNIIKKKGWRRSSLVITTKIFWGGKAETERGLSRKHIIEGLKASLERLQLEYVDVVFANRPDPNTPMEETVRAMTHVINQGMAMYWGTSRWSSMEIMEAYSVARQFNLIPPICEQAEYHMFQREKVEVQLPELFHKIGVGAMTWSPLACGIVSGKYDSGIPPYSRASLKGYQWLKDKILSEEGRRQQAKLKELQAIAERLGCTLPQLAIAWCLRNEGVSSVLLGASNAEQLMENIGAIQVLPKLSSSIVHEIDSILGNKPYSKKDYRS
MEASUREMENT_NOTES: enhancers of rat Kvbeta2 NADPH turnover – biochemical, NADPH fluorescence, primary screen (AID 623);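 further: fluorescence intensity change per second fitted from 20 to 320 s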
ASSAY_SETUP: Recombinant KvBeta, NADPH fluorescence decrease slope, 10 min; at 10 µM; active compounds read low
MEASURED_QUANTITY: NADPH fluorescence slope
Give bare numbers.

Here are 5 molecules together with their reported answers.
1. CCCCn1c(CN2CCN(c3ccccc3)CC2)nc2c1c(=O)n(C)c(=O)n2C = -4.7e-05
2. CCOc1cc(C(=O)N(C)Cc2cc3ccccc3[nH]c2=O)cc(OCC)c1OCC = -5e-05
3. CCOC(=O)N1CCN(CC(=O)Nc2cc(C)nn2-c2nc3ccccc3s2)CC1 = 2.4e-05
4. COc1ccccc1NC(=O)N1CCN(c2ccccc2F)CC1 = -3.6e-05
5. Cn1c(=O)n(CCN2CCOCC2)c(=O)c2c1nc1n2CCN1c1ccccc1 = 2.6e-05

I need NADPH fluorescence slope for every entry listed below, if you could help.
1. COc1ccccc1OCCCn1c(=O)oc2ccccc21
2. COc1ccc(CN(Cc2nc3ccccc3c(=O)[nH]2)C(=O)NC2CCCCC2)cc1
3. O=C(CCn1c(=O)oc2ccccc21)N1CCCCCC1

Reply:
1: -4.3e-05; 2: -2.1e-05; 3: -5.9e-05

* * *

Provide the reported inhibition of aggregation of each item.
MEASUREMENT_NOTES: reduction of polyQ htt aggregates in cells – imaging, exon1htt(103Q)mCFP cells, high-content imaging, primary screen (AID 483);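 further: compound exposure lasted 3 days before fixation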
ASSAY_SETUP: exon1htt(103Q)mCFP cell line, aggregate imaging, at 2 µM; active compounds read high
One number for each entry, in %.

1) Cc1cccc(NC(=O)Cn2c(=O)n(C)c3ccccc32)c1 = 2.6
2) O=C(NCN1CCCCC1)c1cnccn1 = -3.4
3) CC(C)C1C2=C(CC(C)(C)CC2=O)ON1c1ccccc1 (configuration not stated) = 9.1
4) CCn1c2ccccc2c2cc(N)ccc21 = 17.8
5) O=C(CSc1nnc(-c2c[nH]c3ccccc23)o1)N(Cc1ccccc1)c1ccc(F)cc1 = 1

I need inhibition of aggregation for every entry listed below, if you could help.
1. CCn1nnc(NC(=O)c2ccc(-c3ccc(Cl)cc3)o2)n1
2. Cc1ccc(N2C(=O)c3ccccc3C2O)nc1 (configuration not stated)
3. O=C(OCC#CCSc1nc2ccccc2s1)c1ccco1
4. COc1cc(CN(C)CC(=O)c2[nH]c(C)c(C(C)=O)c2C)ccc1OC(F)F
5. CN(C)c1nc(Oc2ccc(=O)n(C)n2)nc(N2CCOCC2)n1

Reply:
[-20, -27.7, -8.9, -11, 17.6]

I need inhibition of aggregation for every entry listed below, if you could help.
1. Cc1ccc2oc(C(=O)Nc3c(C)n(C)n(-c4ccccc4)c3=O)c(C)c2c1
2. Cc1cccc(-c2cc3nc(C)cc(NCCCN(C)C)n3n2)c1

Reply:
1. -1.5
2. -9.4

* * *

MEASURED_TARGET: Alpha-2C adrenergic receptor (Homo sapiens) (UniProt P18825)
Sequence (P18825 whole entry, looked up): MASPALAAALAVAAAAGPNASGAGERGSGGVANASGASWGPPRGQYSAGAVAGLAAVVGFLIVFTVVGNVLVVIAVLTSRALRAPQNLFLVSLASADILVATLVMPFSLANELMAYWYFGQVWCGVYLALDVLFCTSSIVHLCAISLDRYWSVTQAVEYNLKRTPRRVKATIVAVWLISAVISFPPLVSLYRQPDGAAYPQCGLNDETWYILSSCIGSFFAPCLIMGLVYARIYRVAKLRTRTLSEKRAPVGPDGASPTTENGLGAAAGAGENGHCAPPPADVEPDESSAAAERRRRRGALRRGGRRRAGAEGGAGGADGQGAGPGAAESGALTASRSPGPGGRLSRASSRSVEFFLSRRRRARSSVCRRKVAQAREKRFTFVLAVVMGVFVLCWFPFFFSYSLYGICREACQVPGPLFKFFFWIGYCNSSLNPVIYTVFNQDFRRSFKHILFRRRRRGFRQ
MEASUREMENT_NOTES: compounds altering alpha2C-coupled GIRK flux – cell-based, HEK293 alpha2C/GIRK1/2, thallium flux, primary screen (AID 624);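 further: slope of fluorescence ratio to pre-addition baseline per second over 15 to 24 s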
ASSAY_SETUP: thallium flux BTC fluorescence, at 10 µM, actives lie on both sides
Provide the reported slope of each item.
Give bare numbers.

1) COc1cccc(C(=O)CN2CCC(NC(=O)NC3CCCCC3)CC2)c1 = 0.00349
2) CCn1cc(C(=O)NCCCOC)c(=O)c2cc(S(=O)(=O)N(C)C3CCCCC3)ccc21 = 0.00665
3) CCOC(=O)C(NC(=O)c1ccccc1)(Nc1cc(C)on1)C(F)(F)F (stereo not drawn) = 0.00554
4) O=C(O)c1cc2nc(-c3ccc(F)cc3)cc(C(F)(F)F)n2n1 = 0.00272

I need slope for every entry listed below, if you could help.
1. Cc1nc(C)c(C(=O)C2=C(O)C(=O)N(CCCn3ccnc3)C2c2ccccc2)s1 (stereo not drawn)
2. CC(=O)N1CCN(c2ccc(S(=O)(=O)N3CCCCC3)cn2)CC1
3. CN(C)c1ccc(NC(=O)c2ccncc2)c2ccccc12
4. O=[n+]1c2c(n([O-])c3c1CCCC3)CCCC2

Reply:
1: 0.00668; 2: 0.00522; 3: 0.00482; 4: 0.00619

I need slope for every entry listed below, if you could help.
1. COC(=O)c1cc2oc(C)cc2n1CC(=O)Nc1ccc(C)c(C)c1
2. CSCSC1=C(C#N)C(c2ccc(Cl)cc2)C(C(C)=O)=C(C)N1 (stereo not drawn)
3. CCN(CC)CCCNS(=O)(=O)c1ccc(OC)cc1
4. CC(=O)c1ccccc1OCCn1nnc(-c2ccc(C)cc2)n1
5. COC(=O)c1ccccc1S(=O)(=O)NC(=O)c1ccccc1

Reply:
1: 0.00552; 2: 0.00657; 3: 0.00623; 4: 0.0055; 5: 0.00588

I need slope for every entry listed below, if you could help.
1. Cc1ccc(CN2C(=O)CCC2C(=O)NCCCN2CCC(C)CC2)cc1 (stereo not drawn)
2. CCC(=O)Nc1cc2nn(-c3ccccc3)nc2cc1Cl
3. CCCCn1c(CN2CCN(c3ccccc3)CC2)nc2c1c(=O)n(C)c(=O)n2C

Reply:
1: 0.00384; 2: 0.00584; 3: 0.00817
